test system: Fibroblast; test: Multiplex assay against human fibroblast; format: toxicity, cell-based; conditions: 12 h, 10 µM, compound concentration 10 uM, replicate 1
Recorded Population Mitochondria Different-Phenotype (%) for the following compounds
REPORTED METRIC: Population Mitochondria Different-Phenotype (%)

1. O=C(O)Cc1ccccc1Nc1c(Cl)cccc1Cl    5%
2. CN1CCN(c2nc3cc(C(F)(F)F)ccc3n3cccc23)CC1.O=C(O)/C=C\C(=O)O.O=C(O)/C=C\C(=O)O    25%
3. O=S(=O)(c1ccccc1)c1cnc2c(N3CCNCC3)cccc2c1 [INTEPIRDINE]    8%
4. C[C@H](NC(=O)c1c(C(F)F)nn(C)c1Oc1cccc(C(F)(F)F)c1)c1ccc(C(=O)O)cc1    6%

----------
test system: U2OS; test: Multiplex assay against U2OS; assay type: toxicity, cell-based; conditions: human, 24 h, 1 µM, compound concentration 1 uM, replicate 2
Use 10% as the dividing line for Population Pyknosed Nuclei (%), with the line itself on the Satisfied side and lower values as Not satisfied.

1. COc1ccc2c(c1)C(C(=O)N(Cc1ccc(N(C)C)cc1)c1ccc(C(C)C)cc1)CCC2.Cl (centres undefined)    Not satisfied
2. CN(C)c1ccnc2sc3c(=O)n(N4CCCCCC4)cnc3c12    Not satisfied
3. Cl.Clc1ccc2nsnc2c1NC1=NCCN1 [TIZANIDINE HYDROCHLORIDE]    Satisfied
4. CN(C)CCCc1cc(C(=O)Nc2ccc(-c3ccncc3)cc2)ccc1O.Cl.Cl    Satisfied
5. CCCn1c(=O)c2[nH]c(C3CCCC3)nc2n(CCC)c1=O    Satisfied
6. CC1(COc2ccc3c(c2)ncn3-c2ccc3cccc(N4CCC(N)CC4)c3n2)COC1 [CRENOLANIB]    Satisfied
7. N[C@@]1(C(=O)O)CO[C@H]2[C@H](C(=O)O)[C@H]21 [LY-379268]    Not satisfied
8. COc1cc(C(=O)N(CCCc2ccccc2)Cc2ccc(CC(=O)O)cc2)cc(OC)c1C    Satisfied
9. CCCN1CCC[C@@H]2Cc3n[nH]cc3C[C@H]21.Cl [QUINPIROLE HYDROCHLORIDE]    Satisfied

----------
tested on: U2OS; assay: Multiplex assay against U2OS; assay type: toxicity, cell-based; settings: human, 24 h, 1 µM, compound concentration 1 uM, replicate 2
REPORTED METRIC: Population Mitochondria Different-Phenotype (%)

1) N#Cc1c(N)nc(SCc2csc(-c3ccc(Cl)cc3)n2)c(C#N)c1-c1ccc(OCCO)cc1 [CAPADENOSON]    2%
2) Cc1nc2ccc(Oc3ccc(F)cc3)cc2c(=O)n1C[C@H]1CCCN(C(C)C)C1.Cl    9%
3) Cc1ccc(C(C)(O)c2nc3ccccc3s2)c(C)c1 (centres undefined)    3%
4) COc1cc(NC(=O)CCN2CCC(OC(=O)Nc3ccccc3-c3ccccc3)CC2)c(Cl)cc1CNC[C@H](O)c1ccc(O)c2[nH]c(=O)ccc12 [BATEFENTEROL]    6%

----------
test system: U2OS; assay: Multiplex assay against U2OS; format: toxicity, cell-based; conditions: human, 24 h, 1 µM, compound concentration 1 uM, replicate 2
REPORTED METRIC: Total Cell Count

1. CCCn1c(=O)c2[nH]c(C3CCCC3)nc2n(CCC)c1=O    138
2. CSCC[C@H](NC=O)C(=O)N[C@@H](CC(C)C)C(=O)N[C@@H](Cc1ccccc1)C(=O)O    147
3. Cc1ccc(C(C)(O)c2nc3ccccc3s2)c(C)c1 (centres undefined)    159
4. COc1cc(C(=O)N(CCCc2ccccc2)Cc2ccc(CC(=O)O)cc2)cc(OC)c1C    120
5. Cl.Clc1ccc2nsnc2c1NC1=NCCN1 [TIZANIDINE HYDROCHLORIDE]    172
6. Cc1ccc(F)cc1C(=O)Nc1ccc(C(=O)N2Cc3cccn3Cc3ccccc32)c(Cl)c1    171
7. COc1cc(NC(=O)CCN2CCC(OC(=O)Nc3ccccc3-c3ccccc3)CC2)c(Cl)cc1CNC[C@H](O)c1ccc(O)c2[nH]c(=O)ccc12    103
8. CNC[C@H](O)c1ccc(O)c(O)c1 [EPINEPHRINE]    105
9. Cc1ccc(-c2ccc(F)cc2COc2ccc(CCC(=O)O)cc2)cc1    175

----------
Recorded Population Mitochondria Different-Phenotype (%) for the following compounds
test system: Fibroblast; experiment: Multiplex assay against human fibroblast; format: toxicity, cell-based; settings: 48 h, 1 µM, compound concentration 1 uM, replicate 1
REPORTED METRIC: Population Mitochondria Different-Phenotype (%)

1. Cc1nc2ccc(Oc3ccc(F)cc3)cc2c(=O)n1C[C@H]1CCCN(C(C)C)C1.Cl    2
2. CN1CCN2c3ncccc3Cc3ccccc3C2C1 (stereo not drawn)    4
3. CCNC1(C(N)=O)CCN(c2ncnc3c2nc(-c2ccccc2Cl)n3-c2ccc(Cl)cc2)CC1    3
4. CC[C@H]1OC(=O)[C@H](C)[C@@H](O[C@H]2C[C@@](C)(OC)[C@@H](O)[C@H](C)O2)[C@H](C)[C@@H](O[C@@H]2O[C@H](C)C[C@H](N(C)C)[C@H]2O)[C@@]2(C)CC(C)=C(O2)[C@H](C)[C@@H](O)[C@]1(C)O    9
5. CCCC(CCC)C(=O)O    1
6. CNC[C@H](O)c1ccc(O)c(O)c1 [EPINEPHRINE]    6
7. COc1ccc2c(c1)C(C(=O)N(Cc1ccc(N(C)C)cc1)c1ccc(C(C)C)cc1)CCC2.Cl (stereo not drawn)    3
8. N#Cc1c(N)nc(SCc2csc(-c3ccc(Cl)cc3)n2)c(C#N)c1-c1ccc(OCCO)cc1    7

----------
system: U2OS; experiment: Multiplex assay against U2OS; format: toxicity, cell-based; details: human, 24 h, 1 µM, compound concentration 1 uM, replicate 2
Recorded Population Mitochondria Different-Phenotype (%) for the following molecules
REPORTED METRIC: Population Mitochondria Different-Phenotype (%)

1. CN(C)CCCc1cc(C(=O)Nc2ccc(-c3ccncc3)cc2)ccc1O.Cl.Cl    5
2. Cc1ccc(F)cc1C(=O)Nc1ccc(C(=O)N2Cc3cccn3Cc3ccccc32)c(Cl)c1 [LIXIVAPTAN]    13
3. COc1c(C)cc(NC(=O)c2nn(Cc3ccc(F)cc3)c3c2CN(C(=O)c2ccc[nH]2)C[C@]3(C)C(N)=O)cc1C    2
4. CCNC1(C(N)=O)CCN(c2ncnc3c2nc(-c2ccccc2Cl)n3-c2ccc(Cl)cc2)CC1 [OTENABANT]    15

----------
Recorded Population Normal (%) for the following molecules
tested on: Fibroblast; experiment: Multiplex assay against human fibroblast; format: toxicity, cell-based; details: 48 h, 1 µM, compound concentration 1 uM, replicate 1
REPORTED METRIC: Population Normal (%)

1. N#Cc1c(N)nc(SCc2csc(-c3ccc(Cl)cc3)n2)c(C#N)c1-c1ccc(OCCO)cc1 [CAPADENOSON]    97%
2. CN1CCN2c3ncccc3Cc3ccccc3C2C1 (centres undefined) [MIRTAZAPINE]    92%
3. COc1ccc2c(c1)C(C(=O)N(Cc1ccc(N(C)C)cc1)c1ccc(C(C)C)cc1)CCC2.Cl (centres undefined)    98%
4. CC[C@H]1OC(=O)[C@H](C)[C@@H](O[C@H]2C[C@@](C)(OC)[C@@H](O)[C@H](C)O2)[C@H](C)[C@@H](O[C@@H]2O[C@H](C)C[C@H](N(C)C)[C@H]2O)[C@@]2(C)CC(C)=C(O2)[C@H](C)[C@@H](O)[C@]1(C)O    96%

----------
system: HEK-293T; test: Multiplex assay against HEK293T; format: toxicity, cell-based; conditions: human, 24 h, 10 µM, compound concentration 10 uM, replicate 1
Use 90% as the dividing line for Population Normal (%), with the line itself on the true (1) side and lower values as false (0).

1. CSc1ccccc1N1CCN(CCCCCC(=O)NC2CCCc3ccccc32)CC1.Cl (stereo not drawn)    false (0)
2. Cl.Clc1ccc2nsnc2c1NC1=NCCN1 [TIZANIDINE HYDROCHLORIDE]    true (1)
3. O=C1COc2nccc(-c3ccccc3F)c2CN1Cc1cc(C(F)(F)F)cc(C(F)(F)F)c1    true (1)
4. COc1cc(NC(=O)CCN2CCC(OC(=O)Nc3ccccc3-c3ccccc3)CC2)c(Cl)cc1CNC[C@H](O)c1ccc(O)c2[nH]c(=O)ccc12    false (0)
5. C[C@H]1[C@H]2CC[C@H]3[C@@H]4CC=C5C[C@@H](N(C)C)CC[C@]5(C)[C@H]4CC[C@]23CN1C    true (1)
6. Cc1nc2ccc(Oc3ccc(F)cc3)cc2c(=O)n1C[C@H]1CCCN(C(C)C)C1.Cl    false (0)
7. N[C@@]1(C(=O)O)CO[C@H]2[C@H](C(=O)O)[C@H]21    true (1)
8. O=C(O)Cc1ccccc1Nc1c(Cl)cccc1Cl    true (1)
9. CCCN1CCC[C@@H]2Cc3n[nH]cc3C[C@H]21.Cl [QUINPIROLE HYDROCHLORIDE]    true (1)
10. N#Cc1c(N)nc(SCc2csc(-c3ccc(Cl)cc3)n2)c(C#N)c1-c1ccc(OCCO)cc1    false (0)
11. c1cc(OCCCN2CCCCC2)ccc1CN1CCCCC1    true (1)
12. C[C@@H]1C[C@H]2[C@@H]3CCC4=CC(=O)C=C[C@]4(C)[C@@]3(F)[C@@H](O)C[C@]2(C)[C@@]1(O)C(=O)CO    true (1)
13. CCCn1c(=O)c2[nH]c(C3CCCC3)nc2n(CCC)c1=O    true (1)
